- measuredOn: human TYRO3 (455-end) (Homo sapiens)
- Construct: TYRO3 (455-end); purchased SignalChem, Canada
- Sequence (Q06418 455-890 limits assumed): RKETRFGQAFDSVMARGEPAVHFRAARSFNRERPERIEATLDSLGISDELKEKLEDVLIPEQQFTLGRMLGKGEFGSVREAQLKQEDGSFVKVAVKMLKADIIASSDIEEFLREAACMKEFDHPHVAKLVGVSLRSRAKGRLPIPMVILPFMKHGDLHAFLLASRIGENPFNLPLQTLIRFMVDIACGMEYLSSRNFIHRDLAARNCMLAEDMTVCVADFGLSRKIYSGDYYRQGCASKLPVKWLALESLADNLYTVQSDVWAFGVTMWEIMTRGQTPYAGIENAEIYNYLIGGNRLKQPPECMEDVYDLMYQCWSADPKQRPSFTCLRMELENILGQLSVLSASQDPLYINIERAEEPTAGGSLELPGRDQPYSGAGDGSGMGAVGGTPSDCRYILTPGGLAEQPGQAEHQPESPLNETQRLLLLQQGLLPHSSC
- procedureDetails: HTRF kinase activity biochemical assay, TYRO3
- conditionsUsed: 10 μM ATP, 30 minutes pre-incubation; read-out: HTRF TYRO IC50
pIC50: −log10 of the molar value.
In this section, each of the compounds is paired with its reported pIC50.
metricName: pIC50

>>> valueobserved("Nc1ncc(-c2cccnc2F)cc1C(=O)N[C@H]1CCC[C@@H]1OCc1ccc(-c2ccc3c(c2)CCCC3N2CCN(CCO)CC2)cc1 (stereo partly drawn) [Example 149]")
"7.00 to 8.00"
>>> valueobserved("CN1CCN([C@H]2CCc3cc(-c4ccc(CO[C@H]5CCC[C@@H]5NC(=O)c5cc(-c6cccnc6F)cnc5N)cc4)ccc32)CC1 [Example 116]")
"6.00 to 7.00"
>>> valueobserved("Cn1cc(-c2cnc(N)c(C(=O)N[C@H]3CCC[C@@H]3OCc3ccc(-c4ccc5c(c4)C(C)(C)C[C@@H]5N4CCN(C[C@H](O)CO)CC4)cc3)c2)cn1 [Example 169]")
"> 8.00"
>>> valueobserved("Cn1cc(-c2cnc(N)c(C(=O)N[C@H]3CCC[C@@H]3OCc3ccc(-c4ccc5c(c4)CC(F)(F)[C@@H]5N4CCN(CCO)CC4)cc3)c2)cn1 [Example 65]")
"6.00 to 7.00"
>>> valueobserved("CC1(C)CN(C2CCN(CCO)CC2)c2ccc(-c3ccc(CO[C@H]4CCC[C@@H]4NC(=O)c4cc(-c5ccc(F)nc5)cnc4N)cc3)cc21 [Example 31]")
"7.00 to 8.00"
>>> valueobserved("Cn1cc(-c2cnc(N)c(C(=O)N[C@H]3CCC[C@@H]3OCc3ccc(-c4ccc5c(c4)CCC5N4CCN(CC5COC(C)(C)O5)CC4)cc3)c2)cn1 (stereo partly drawn) [Example 79]")
"< 6.00"
>>> valueobserved("COc1nc(-c2cnc(N)c(C(=O)N[C@H]3CCC[C@@H]3OCc3ccc(-c4ccc5c(c4)CC[C@@H]5N4CCN(CCO)CC4)cc3)c2)cs1 [Example 179]")
"7.00 to 8.00"
>>> valueobserved("Cn1cc(-c2cnc(N)c(C(=O)N[C@H]3CCC[C@@H]3OCc3ccc(-c4ccc5c(c4)C(C)(C)CCC5N4CCNCC4)cc3)c2)cn1 (stereo partly drawn) [Example 146]")
"7.00 to 8.00"
>>> valueobserved("CC(C)n1ccc2cc(-c3ccc(CO[C@H]4CCC[C@@H]4NC(=O)c4cc(-c5cnn(C)c5)cnc4N)cc3)ccc21 [Example 60]")
"< 6.00"
>>> valueobserved("Nc1ncc(-c2ccc(F)nc2)cc1C(=O)N[C@H]1CCC[C@@H]1OCc1ccc(-c2ccc3c(c2)CC[C@@H]3N2CCN(CC(O)CO)CC2)cc1 (stereo partly drawn) [Example 100]")
"6.00 to 7.00"
>>> valueobserved("Cn1cc(-c2cnc(N)c(C(=O)N[C@H]3CCC[C@@H]3OCc3ccc(-c4ccc5c(c4)CC(C)(C)C5N4CCN(CCO)CC4)cc3)c2)cn1 (stereo partly drawn) [Example 105]")
"6.00 to 7.00"
>>> valueobserved("Nc1ncc(C(F)(F)F)cc1C(=O)N[C@H]1CCC[C@@H]1OCc1ccc(-c2ccc3c(ccn3C3CCN(CCO)CC3)c2)cc1 [Example 21]")
"< 6.00"
